Data provenance is patent US20260053904A1.

Molecular target: T1, cyno EpCAM (recombinant, ELISA antigen) (cynomolgus monkey)
T1 construct: extracellular domain; also called cynomolgus EpCAM extracellular domain
T1 sequence (Q1WER1 24-265): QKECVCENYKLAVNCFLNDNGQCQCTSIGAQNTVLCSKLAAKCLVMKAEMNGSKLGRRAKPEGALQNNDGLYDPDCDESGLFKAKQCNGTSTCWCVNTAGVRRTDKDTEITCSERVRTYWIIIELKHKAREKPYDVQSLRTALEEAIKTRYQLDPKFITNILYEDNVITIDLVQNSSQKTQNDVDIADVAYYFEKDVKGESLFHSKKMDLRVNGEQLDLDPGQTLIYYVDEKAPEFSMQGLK
Assay: ELISA of MMAE conjugates, cyno EpCAM, pH 7.4
Experimental: A similar ELISA analysis was also carried out using cyno EpCAM to measure the binding affinities of the conjugated humanized conditionally active anti-EpCAM antibodies. […] The EC50 values for binding to the cyno EpCAM by the conjugated humanized conditionally active anti-EpCAM antibodies are summarized in Table 13. The ELISA assay was performed using the following protocol: [0388] […]
assay.metric: EC50 (µg/mL)

binder	assay.metric	reported
BA-105-01-01 7376-vcMMAE (antibody, V domains shown, antibody conjugated to vcMMAE; chain and residues of attachment not stated) VH: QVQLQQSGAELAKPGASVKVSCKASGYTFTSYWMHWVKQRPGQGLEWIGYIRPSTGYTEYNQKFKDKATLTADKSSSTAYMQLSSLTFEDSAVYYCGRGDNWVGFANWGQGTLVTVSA VL: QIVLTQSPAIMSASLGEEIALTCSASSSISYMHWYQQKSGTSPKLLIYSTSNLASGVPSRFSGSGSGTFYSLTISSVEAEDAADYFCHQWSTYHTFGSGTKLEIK	EC50	0.0234
BA-105.4-01-05 8317-vcMMAE (antibody, V domains shown, antibody conjugated to vcMMAE; chain and residues of attachment not stated) VH: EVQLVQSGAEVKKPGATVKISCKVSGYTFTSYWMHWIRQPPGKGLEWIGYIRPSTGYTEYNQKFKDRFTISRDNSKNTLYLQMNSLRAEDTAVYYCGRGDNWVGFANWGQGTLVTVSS VL: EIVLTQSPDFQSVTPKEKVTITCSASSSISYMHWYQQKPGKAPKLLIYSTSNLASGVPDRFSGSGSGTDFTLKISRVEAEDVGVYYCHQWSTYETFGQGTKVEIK	EC50	0.3
BA-105.4-02-01 8318-vcMMAE (antibody, V domains shown, antibody conjugated to vcMMAE; chain and residues of attachment not stated) VH: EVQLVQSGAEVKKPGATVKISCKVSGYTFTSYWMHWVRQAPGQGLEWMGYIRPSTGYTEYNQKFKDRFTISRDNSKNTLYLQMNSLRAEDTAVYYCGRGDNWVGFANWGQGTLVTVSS VL: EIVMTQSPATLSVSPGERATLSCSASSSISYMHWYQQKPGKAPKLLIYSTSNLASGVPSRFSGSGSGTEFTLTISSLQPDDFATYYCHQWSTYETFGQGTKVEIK	EC50	0.249
